Collected pIC50 for UniProt:P06239 across several studies; compounds listed below.
pIC50: −log10 of the molar value.
Parameter Measured: pIC50

[[record]]
compound = "CN(C/C=C/C(=O)N1CC[C@@H](n2nc(-c3ccc(C(=O)Nc4ncc(C5CC5)s4)cc3)c3c(N)ncnc32)C1)C1CC1"
result = "> 9.00"

[[record]]
compound = "CC(C)OC(=O)Nc1cnc2[nH]c(-c3ccc(N)cc3)nc2c1"
result = "5.05 to 7.00"

[[record]]
compound = "CN1CCN(c2ccc3nc(-c4c(N5CCC(O)CC5)c5sccc5[nH]c4=O)[nH]c3c2)CC1"
result = "< 6.30"

[[record]]
compound = "O=C(NC[C@H]1CCCN1)c1nc2nc(Nc3ccc(N4CCOCC4)cc3)ncc2cc1-c1c(Cl)cccc1Cl"
result = 8.77

[[record]]
compound = "C=CC(C)OC(=O)Nc1cnc2[nH]c(-c3ccccc3)nc2c1 (centres unmarked)"
result = "5.05 to 7.00"

[[record]]
compound = "O=S(=O)(Nc1cccc(-c2nc(-c3ccccc3)sc2-c2ccnc(Nc3cccnc3)n2)c1F)c1c(F)cccc1F"
result = "6.00 to 7.00"

[[record]]
compound = "Cc1nn(C)cc1Nc1nc(N)c2c(-c3ccc4[nH]ccc4c3)nn(C(C)C)c2n1"
result = "< 5.00"

[[record]]
compound = "C[S+]([O-])CCNC(=O)c1nc2nc(Nc3ccc(F)cc3)ncc2cc1-c1ccccc1Br (centres unmarked)"
result = 6.23

[[record]]
compound = "O=C(Nc1cnc2[nH]c(-c3ccsc3)nc2c1)c1ccccc1Cl"
result = "5.05 to 7.40"

[[record]]
compound = "O=C(Nc1cnc2[nH]c(-c3ccccc3)nc2c1)c1ccccc1"
result = "5.05 to 7.40"

[[record]]
compound = "CNC(=O)CNC(=O)c1nc2nc(Nc3ccc(F)cc3)ncc2cc1-c1ccccc1Br"
result = 6.69

[[record]]
compound = "CC1C(Nc2ncnc3[nH]ccc23)CCCN1C(=O)CNc1cc(Cl)cc(Cl)c1 (centres unmarked)"
result = "6.00 to 7.00"

[[record]]
compound = "COC(=O)c1ccc2c(c1)NC(=O)/C2=C(\\Nc1ccc(N(C)C(=O)CN(C)C)cc1)c1ccccc1"
result = 7.44

[[record]]
compound = "O=C(NCCNc1ccccn1)c1nc2nc(Nc3ccc(F)cc3)ncc2cc1-c1ccccc1Br"
result = 6.59

[[record]]
compound = "CN1C(=O)N(c2cc(NC(=O)c3cccc(-c4ccccc4)c3)ccc2Cl)Cc2cnc(N)nc21"
result = "6.82 to 7.30"

[[record]]
compound = "CC(=O)Nc1cccc(-c2cc3cc(NC(=O)OCC(C)C)cnc3[nH]2)c1"
result = "5.05 to 7.00"

[[record]]
compound = "CCCOC(=O)Nc1cnc2nc(-c3ccccc3)[nH]c2c1"
result = "5.05 to 7.00"


---

Collected pIC50 for Tyrosine-protein kinase Lck (Homo sapiens, UniProt P06239) across several studies; compounds listed below.
pIC50: −log10 of the molar value.
Parameter Measured: pIC50

[[record]]
compound = "CN(C/C=C/C(=O)N1CC[C@@H](n2c(Cl)c(-c3ccc(Oc4ccccc4)cc3)c3c(N)ncnc32)C1)C1CC1"
tested_target = "Tyrosine-protein kinase Lck (Homo sapiens, UniProt P06239)"
parameter_measured = "pIC50"
result = "> 7.00"

[[record]]
compound = "CN(c1ncnc2[nH]ncc12)C1CCCCN(C(=O)CNc2cc(Cl)cc(Cl)c2)C1 (stereo not drawn)"
tested_target = "Tyrosine-protein kinase Lck (Homo sapiens, UniProt P06239)"
parameter_measured = "pIC50"
result = "5.00 to 6.00"

[[record]]
compound = "CN(C)C/C=C/C(=O)N(C)c1cccc(-n2c(=O)n(-c3ccc(Cl)cc3)c3c(N)ncnc32)c1"
tested_target = "Tyrosine-protein kinase Lck (Homo sapiens, UniProt P06239)"
parameter_measured = "pIC50"
result = "< 5.00"

[[record]]
compound = "CC#CC(=O)N1CCC[C@@H]1Cn1nc(-c2ccc(Oc3ccccc3)cc2)c2c(N)ncnc21"
tested_target = "Tyrosine-protein kinase Lck (Homo sapiens, UniProt P06239)"
parameter_measured = "pIC50"
result = 8.23

[[record]]
compound = "O=C(N[C@H]1CCCNC1)c1nc2nc(Nc3ccc(F)cc3)ncc2cc1-c1ccccc1Br"
tested_target = "Tyrosine-protein kinase Lck (Homo sapiens, UniProt P06239)"
parameter_measured = "pIC50"
result = 7.56

[[record]]
compound = "C=CC(=O)Nc1cccc(-n2c(=O)n(-c3ccc(Oc4ccccc4)cc3)c3c(N)ncnc32)c1"
tested_target = "Tyrosine-protein kinase Lck (Homo sapiens, UniProt P06239)"
parameter_measured = "pIC50"
result = "> 7.00"

[[record]]
compound = "CC#CC(=O)N[C@H]1CC[C@H](n2nc(-c3ccc(C(=O)Nc4cc(C(F)(F)F)ccn4)cc3)c3c(N)ncnc32)CC1"
tested_target = "Tyrosine-protein kinase Lck (Homo sapiens, UniProt P06239)"
parameter_measured = "pIC50"
result = "> 7.00"

[[record]]
compound = "CNc1nccc(-c2sc(-c3cncc(C(F)(F)F)c3)nc2-c2cccc(NS(=O)(=O)c3c(F)cccc3F)c2F)n1"
tested_target = "Tyrosine-protein kinase Lck (Homo sapiens, UniProt P06239)"
parameter_measured = "pIC50"
result = "< 6.00"

[[record]]
compound = "CN(C/C=C/C(=O)N1CC[C@@H](n2nc(-c3ccc(C(=O)Nc4cc(C5CC5)ccn4)cc3)c3c(N)ncnc32)C1)C1CC1"
tested_target = "Tyrosine-protein kinase Lck (Homo sapiens, UniProt P06239)"
parameter_measured = "pIC50"
result = "6.00 to 7.00"

[[record]]
compound = "CNCCCNC(=O)c1nc2nc(Nc3ccc(F)cc3)ncc2cc1-c1ccccc1Br"
tested_target = "Tyrosine-protein kinase Lck (Homo sapiens, UniProt P06239)"
parameter_measured = "pIC50"
result = 7.00

[[record]]
compound = "Nc1nccc(-c2sc(-c3cncc(Cl)c3)nc2-c2cccc(NS(=O)(=O)c3c(F)cccc3F)c2F)n1"
tested_target = "Tyrosine-protein kinase Lck (Homo sapiens, UniProt P06239)"
parameter_measured = "pIC50"
result = "< 6.00"

[[record]]
compound = "Cc1cc(N(C)C(=O)/C=C/CN(C)C2CC2)cc(-n2c(=O)n(-c3ccc(Oc4ccccc4)cc3)c3c(N)ncnc32)c1"
tested_target = "Tyrosine-protein kinase Lck (Homo sapiens, UniProt P06239)"
parameter_measured = "pIC50"
result = "5.00 to 6.00"

[[record]]
compound = "CS(=O)(=O)c1cccc(Nc2ncc3cc(-c4ccccc4Br)c(C#N)nc3n2)c1"
tested_target = "Tyrosine-protein kinase Lck (Homo sapiens, UniProt P06239)"
parameter_measured = "pIC50"
result = 6.80

[[record]]
compound = "COc1cc(-c2nn(-c3ccc(N(C)C(=O)/C=C/CN(C)C)cc3)c3ncnc(N)c23)ccc1C"
tested_target = "Tyrosine-protein kinase Lck (Homo sapiens, UniProt P06239)"
parameter_measured = "pIC50"
result = "> 7.00"

[[record]]
compound = "CN(C)C/C=C/C(=O)N1CCC(Cn2c(=O)n(-c3ccc(Oc4ccccc4)cc3)c3c(N)ncnc32)CC1"
tested_target = "Tyrosine-protein kinase Lck (Homo sapiens, UniProt P06239)"
parameter_measured = "pIC50"
result = "6.00 to 7.00"

[[record]]
compound = "COCCOc1ccc(-c2nc3cc(NC(=O)OC(C)C)cnc3[nH]2)cc1"
tested_target = "Tyrosine-protein kinase Lck (Homo sapiens, UniProt P06239)"
parameter_measured = "pIC50"
result = "5.05 to 7.00"

[[record]]
compound = "Cc1ccnc(NC(=O)c2ccc(-c3nn([C@H]4CC[C@H](NC(=O)/C=C/CN(C)C)CC4)c4ncnc(N)c34)cc2)c1"
tested_target = "Tyrosine-protein kinase Lck (Homo sapiens, UniProt P06239)"
parameter_measured = "pIC50"
result = "< 5.00"

[[record]]
compound = "CN(C)C/C=C/C(=O)N1CCC(n2c(=O)[nH]c3cnc(Nc4ccc(F)cc4)nc32)CC1"
tested_target = "Tyrosine-protein kinase Lck (Homo sapiens, UniProt P06239)"
parameter_measured = "pIC50"
result = "5.00 to 6.00"

[[record]]
compound = "Cc1c(-c2ccc(Oc3ccccc3)cc2)c2c(N)ncnc2n1[C@@H]1CCN(C(=O)/C=C/CN(C)C)C1"
tested_target = "Tyrosine-protein kinase Lck (Homo sapiens, UniProt P06239)"
parameter_measured = "pIC50"
result = "> 7.00"

[[record]]
compound = "CC(=O)Nc1ccc(C(=O)Nc2sc(Nc3ccccc3)nc2C(N)=O)cc1"
tested_target = "Tyrosine-protein kinase Lck (Homo sapiens, UniProt P06239)"
parameter_measured = "pIC50"
result = "< 6.52"

[[record]]
compound = "CC#CC(=O)N1CC[C@@H](n2nc(-c3ccc(C(=O)Nc4ccccn4)cc3)c3c(N)ncnc32)C1"
tested_target = "Tyrosine-protein kinase Lck (Homo sapiens, UniProt P06239)"
parameter_measured = "pIC50"
result = "7.00 to 8.00"

[[record]]
compound = "NC(=O)CNC(=O)c1nc2nc(Nc3ccc(F)cc3)ncc2cc1-c1ccccc1Br"
tested_target = "Tyrosine-protein kinase Lck (Homo sapiens, UniProt P06239)"
parameter_measured = "pIC50"
result = 6.54

[[record]]
compound = "CC(=O)Nc1cccc(-c2nc3cc(NC(=O)OC(C)C)cnc3[nH]2)c1"
tested_target = "Tyrosine-protein kinase Lck (Homo sapiens, UniProt P06239)"
parameter_measured = "pIC50"
result = 6.10

[[record]]
compound = "N#C/C(=C\\C1CC1)C(=O)N1CCC[C@@H](n2c(=O)n(-c3ccc(Oc4ccccc4)cc3)c3c(N)ncnc32)C1"
tested_target = "Tyrosine-protein kinase Lck (Homo sapiens, UniProt P06239)"
parameter_measured = "pIC50"
result = "6.00 to 7.00"

[[record]]
compound = "Nc1nccc(-c2sc(N3CCCC3=O)nc2-c2cccc(NS(=O)(=O)c3c(F)cccc3F)c2F)n1"
tested_target = "Tyrosine-protein kinase Lck (Homo sapiens, UniProt P06239)"
parameter_measured = "pIC50"
result = "< 6.00"

[[record]]
compound = "CN(C/C=C/C(=O)Nc1cccc(-n2c(=O)n(-c3ccc(Oc4ccccc4)cc3)c3c(N)ncnc32)c1)C1CCC1"
tested_target = "Tyrosine-protein kinase Lck (Homo sapiens, UniProt P06239)"
parameter_measured = "pIC50"
result = "6.00 to 7.00"

[[record]]
compound = "CN1CCN(c2ccc3nc(-c4c(N[C@H]5C[C@H](O)C5)c5ccsc5[nH]c4=O)[nH]c3c2)CC1"
tested_target = "Tyrosine-protein kinase Lck (Homo sapiens, UniProt P06239)"
parameter_measured = "pIC50"
result = "6.30 to 7.30"

[[record]]
compound = "N#Cc1nc2nc(Nc3ccc(OCCO)cc3)ncc2cc1-c1ccccc1Br"
tested_target = "Tyrosine-protein kinase Lck (Homo sapiens, UniProt P06239)"
parameter_measured = "pIC50"
result = 7.30

[[record]]
compound = "CN1CCN(c2ccc3nc(-c4c(N[C@H]5CCCC[C@H]5O)c5sccc5[nH]c4=O)[nH]c3c2)CC1"
tested_target = "Tyrosine-protein kinase Lck (Homo sapiens, UniProt P06239)"
parameter_measured = "pIC50"
result = "≥ 7.30"

[[record]]
compound = "NS(=O)(=O)c1ccc2c(c1)C(=CC1=CC3=C(CCCC3)C1)C(=O)N2"
tested_target = "Tyrosine-protein kinase Lck (Homo sapiens, UniProt P06239)"
parameter_measured = "pIC50"
result = 6.15

